Tested on: MDA-MB-468 breast
Assay: NCI-60 one-dose screen, 48 h
Conditions: 10 µM unless noted
The panel holds about 83,000 compounds, 20% with a hit somewhere; the sample as a whole holds those more often. Activity calls are given as the source filed them. How the source made its calls: active means growth percent below 10; inactive means the rest.
Classes used: active, inactive

[
  {
    "molecule": "CO[C@H]1NC(=O)N(S(=O)(=O)c2ccc(Cl)cc2)[C@@H]1OC",
    "label.value": "inactive"
  },
  {
    "molecule": "CC(=O)OC[C@]12CC[C@@H](c3cn(Cc4ccc(Cn5cc([C@@H]6CC[C@]7(COC(C)=O)CC[C@]8(C)[C@H](CC[C@@H]9[C@@]%10(C)CC[C@H](OC(C)=O)C(C)(C)[C@@H]%10CC[C@]98C)[C@@H]67)nn5)cc4)nn3)[C@@H]1[C@H]1CC[C@@H]3[C@@]4(C)CC[C@H](OC(C)=O)C(C)(C)[C@@H]4CC[C@@]3(C)[C@]1(C)CC2",
    "label.value": "inactive"
  },
  {
    "molecule": "COC(=O)C1=C(C(=O)ON)C2C=CC1(C(Cc1ccccc1)Nc1ccccc1)O2 (centres undefined)",
    "label.value": "active"
  },
  {
    "molecule": "Nc1cc(-c2c[nH]c3ccc(Br)cc23)nc2cc(-c3c[nH]c4ccc(Br)cc34)nn12",
    "label.value": "active"
  },
  {
    "molecule": "CC(=O)OC[C@]12CC[C@@H](C(=O)CBr)[C@@H]1[C@H]1CC[C@@H]3[C@@]4(C)CCCNC(C)(C)[C@@H]4CC[C@@]3(C)[C@]1(C)CC2",
    "label.value": "active"
  },
  {
    "molecule": "NC(=O)C(=Cc1ccc(Cl)cc1)C(N)=O",
    "label.value": "active"
  },
  {
    "molecule": "O=c1c2cc(F)ccc2sc2c(NCCCNCCO)nc3ccc(Cl)cc3c12",
    "label.value": "inactive"
  },
  {
    "molecule": "COc1ccc2c(c1)C(=O)/C(=C/c1ccccn1)CC2",
    "label.value": "inactive"
  },
  {
    "molecule": "C[n+]1cccc(CC(=O)NO)c1",
    "label.value": "inactive"
  },
  {
    "molecule": "c1ccc(CNc2ccc3nc(CCC4CCCCC4)[nH]c3c2)cc1",
    "label.value": "inactive"
  },
  {
    "molecule": "O=C(COc1ccc(/C=C2\\SC(=O)NC2=O)cc1)Nc1ccc(C(=O)/C=C/c2cc3ccccc3nc2Cl)cc1",
    "label.value": "inactive"
  },
  {
    "molecule": "O=C1NCC2CCCC1C2 (centres undefined)",
    "label.value": "inactive"
  },
  {
    "molecule": "COc1ccc(-c2nc3sc(-c4cc(OC)c(OC)c(OC)c4)nn3c2/C=C2/C(=O)Nc3ccc(F)cc32)cc1",
    "label.value": "active"
  },
  {
    "molecule": "CN(C)c1cccc2c(S(=O)(=O)N[C@H]3CC[C@H]4[C@@H]5CCc6cc(O)ccc6[C@H]5CC[C@]34C)cccc12",
    "label.value": "inactive"
  }
]

###

System: MDA-MB-468 breast
Test: NCI-60 one-dose screen, 48 h (100 = growth as untreated, 0 = no growth, -100 = all killed)
Details: 10 µM unless noted
About 83,000 compounds went through this panel and 20% of them were active in at least one assay; those are over-represented in the sample as a whole.

[
  {
    "compound": "CCOC(=O)c1c(C)nc(C)c(C(=O)OCC)c1-c1cccnc1",
    "growth / %": 94.8
  },
  {
    "compound": "CS(=O)(=O)c1ccc(-c2[nH]c3ccc(F)cc3c2/C=N/NC(N)=S)cc1",
    "growth / %": 8.01
  },
  {
    "compound": "CCc1ccc2c(c1)N(CCO)C1=C(C(=O)OC1)C2c1cc(OC)c(OC)c(OC)c1 (stereo not given)",
    "growth / %": 2.83
  },
  {
    "compound": "CCOc1cc(Cl)c(C(C)NC(=O)c2cccc(OC)c2)cc1OCC (stereo not given)",
    "growth / %": -61.6
  },
  {
    "compound": "CCOP(=O)(OCC)OC[C@]12CCC(C)(C)C[C@H]1C1=CC[C@@H]3[C@@]4(C)C/C(=C\\c5cccnc5)[C@H](OP(=O)(OCC)OCC)C(C)(C)[C@@H]4CC[C@@]3(C)[C@]1(C)CC2",
    "growth / %": -0.445
  },
  {
    "compound": "COc1ccc2[nH]c(O)c(/C=c3/cc4c(c(-c5ccc(F)c(OC)c5)n3)=Nc3ccccc3-4)c2c1",
    "growth / %": -70.4
  },
  {
    "compound": "O=C(CSc1nc2c(n1Nc1ccccc1)-c1ccccc1SC2)Nc1nccs1",
    "growth / %": 104
  },
  {
    "compound": "S=C(NCc1ccccc1)NCc1ccccc1",
    "growth / %": 101
  },
  {
    "compound": "CCOC(=O)CSSCC(=O)OCC",
    "growth / %": 117
  },
  {
    "compound": "Cc1nc(N)nc(SCc2ccccc2)c1Br",
    "growth / %": 69
  },
  {
    "compound": "CC(C)=CCc1ccc(O)c(=O)cc1C(C)C",
    "growth / %": -24.2
  },
  {
    "compound": "CC(=O)c1cc2c(N)c(C(=O)Nc3cccc4ccncc34)sc2nc1C",
    "growth / %": 71.6
  },
  {
    "compound": "CC1(C)CC[C@]23CC[C@]4(C)[C@H](CC[C@@H]5[C@@]6(C)CCCNC(C)(C)[C@@H]6CC[C@]54C)[C@H]2[C@H]1OC3",
    "growth / %": -50.5
  },
  {
    "compound": "CC(C)CCC[C@@H](C)[C@H]1CC[C@H]2[C@@H]3CC[C@H]4C/C(=N/O)CC[C@]4(C)[C@H]3CC[C@]12C",
    "growth / %": 99
  },
  {
    "compound": "Cc1ccc2nc(SCC(=O)Nc3ccc(-c4nc5ccccc5s4)c(Cl)c3)[nH]c2c1",
    "growth / %": 101
  },
  {
    "compound": "COc1cc(OC)c2c(=O)c3c(CC=C(C)C)cc(OC)c(O)c3oc2c1",
    "growth / %": 110
  },
  {
    "compound": "CC1(C)CC[C@]23CC[C@]4(C)[C@H](CC[C@@H]5[C@@]6(C)CCNCC(C)(C)[C@@H]6CC[C@]54C)[C@H]2[C@H]1OC3",
    "growth / %": 65.4
  },
  {
    "compound": "COc1cc2c3c(c4c5ccccc5[nH]c4c2c(OC)c1OC)C(=O)N(O)C3=O",
    "growth / %": 32.7
  },
  {
    "compound": "COc1cccc(-c2cc(-c3cccc(Cl)c3)c(C#N)c(=O)[nH]2)c1",
    "growth / %": 70.1
  },
  {
    "compound": "CC(C)CCN(CCC(C)C)CC(=O)Nc1ccc(S(=O)(=O)c2ccc(NC(=O)CN(CCC(C)C)CCC(C)C)cc2)cc1",
    "growth / %": 46.5
  },
  {
    "compound": "O=C(Nc1cc(Cl)cc(Cl)c1)Nc1nc2ccc([N+](=O)[O-])cc2s1",
    "growth / %": -24.1
  },
  {
    "compound": "CSc1nc(N)nc2c1ncn2C",
    "growth / %": 108
  },
  {
    "compound": "Oc1c(Cl)cc(Cl)c2ccc(Cn3cc(-c4ccc(C(F)(F)F)cc4)nn3)nc12",
    "growth / %": 39.6
  },
  {
    "compound": "COc1ccccc1/C=C1\\COc2ccc(-c3ccccc3)cc2C1=O",
    "growth / %": 3.14
  },
  {
    "compound": "COC[C@@]1(C)CC[C@]2(C)CC[C@]3(C)C(=CC[C@@H]4[C@@]5(C)CCCNC(C)(C)[C@@H]5CC[C@]43C)C2C1 (stereo not given in full)",
    "growth / %": 50.9
  },
  {
    "compound": "C/C(=C(/c1ccc(O)cc1)c1ccc(OCCN2CCCCCC2)cc1)c1ccccc1",
    "growth / %": 31.8
  },
  {
    "compound": "Cc1cccc(NC(=O)Cn2cc(CN3CCN(c4ccnc5cc(Cl)ccc45)CC3)nn2)c1",
    "growth / %": 90.2
  },
  {
    "compound": "Cc1nc2sc(C(=O)Nc3cccc(Cl)c3C)c(N)c2cc1C(=O)/C=C/c1ccccc1",
    "growth / %": 4.69
  },
  {
    "compound": "CC(C)(C)c1cc(-c2nc3ccc(N4CCN(CCO)CC4)cc3[nH]2)cc(C(C)(C)C)c1O",
    "growth / %": 52.7
  },
  {
    "compound": "CCCCC(=O)N/N=C/c1cc(I)cc(I)c1O",
    "growth / %": 69
  }
]
